Target: ICAM-1 (Homo sapiens, UniProt P05362)
Sequence (P05362 28-480 limits assumed): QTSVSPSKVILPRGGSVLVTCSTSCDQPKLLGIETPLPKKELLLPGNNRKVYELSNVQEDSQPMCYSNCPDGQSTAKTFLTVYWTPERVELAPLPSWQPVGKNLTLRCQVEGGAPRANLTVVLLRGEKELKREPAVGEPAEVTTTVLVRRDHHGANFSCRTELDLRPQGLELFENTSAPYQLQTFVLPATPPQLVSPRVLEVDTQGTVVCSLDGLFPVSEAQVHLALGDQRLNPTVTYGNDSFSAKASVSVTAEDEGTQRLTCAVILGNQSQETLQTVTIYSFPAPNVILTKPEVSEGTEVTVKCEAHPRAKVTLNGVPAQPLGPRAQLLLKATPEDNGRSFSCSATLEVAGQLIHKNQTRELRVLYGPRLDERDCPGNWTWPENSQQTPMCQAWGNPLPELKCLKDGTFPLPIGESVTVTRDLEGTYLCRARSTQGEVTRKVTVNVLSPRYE
Experiment: BIAcore binding of soluble αL I-domains to ICAM-1
Settings: curve fitting of dissociation phase, 1:1 binding model
assay_endpoint: Koff, interaction of αL I-domains with ICAM-1 (s⁻¹)
Report as a plain number; the unit s⁻¹ is understood.

For orientation, consider the following solved cases.
L289C/K294C: low affinity closed αL I-domain mutant, cysteines for L289 and K294 (protein) GNVDLVFLFDGSMSLQPDEFQKILDFMKDVMKKLSNTSYQFAAVQFSTSYKTEFDFSDYVKRKDPDALLKHVKHMLLLTNTFGAINYVATEVFREELGARPDATKVLIIITDGEATDSGNIDAAKDIIRYIIGIGKHFQTKESQETLHKFASKPASEFVKICDTFECLKDLFTELQKKIY = 2.84
E284C/E301C: high affinity open αL I-domain mutant, E284 and E301 replaced by cysteines (protein) GNVDLVFLFDGSMSLQPDEFQKILDFMKDVMKKLSNTSYQFAAVQFSTSYKTEFDFSDYVKRKDPDALLKHVKHMLLLTNTFGAINYVATEVFREELGARPDATKVLIIITDGEATDSGNIDAAKDIIRYIIGIGKHFQTKESQETLHKFASKPASCFVKILDTFEKLKDLFTCLQKKIY = 0.0459

Pending molecule:
Tell me the measured Koff, interaction of αL I-domains with ICAM-1 of K160C/F299C: intermediate-affinity open αL I-domain mutant, cysteines for K160 and F299 (protein) GNVDLVFLFDGSMSLQPDEFQKILDFMKDVMKCLSNTSYQFAAVQFSTSYKTEFDFSDYVKRKDPDALLKHVKHMLLLTNTFGAINYVATEVFREELGARPDATKVLIIITDGEATDSGNIDAAKDIIRYIIGIGKHFQTKESQETLHKFASKPASEFVKILDTFEKLKDLCTELQKKIY , please.
0.67
